This collection of values is drawn from the supplement of paper PMC12764529.

assay: folding stability dG unfold from trypsin proteolysis; higher = more stable
OUTCOME_MEASURE: folding stability dG unfold (kcal/mol)
Supply the numeric figure in kcal/mol, leaving out any unit text.

residue_sequence="SAGGSIIIRGPSPDQAEEAARAFAKNFREQFPENPNMEIPVKVEYEDPENGQRQEYEAEIKIPYPDSAGGSA [r2_393_TrROS]" outcome_measure="folding stability dG unfold" output_unit=kcal/mol quantitative_readout=0.0648
residue_sequence="SAGGSAKLTIELVISDMSPEDAEIAAENIRIELIKKGIPEEEIENVDIKVIVAPVYLDEDNNLILGSAGGSA [r15_684_TrMRF]" outcome_measure="folding stability dG unfold" output_unit=kcal/mol quantitative_readout=0.533
residue_sequence="SAGGSAGGSAGMVIVDPERGYIYIPFPEDIEPEEFIEANKIPEFDIEVLEIGENIPVIKLSAGGSAGGSAGG [r17_323_TrMRF]" outcome_measure="folding stability dG unfold" output_unit=kcal/mol quantitative_readout=0.357

Quick check: folding stability dG unfold of SAGGSMERTVELTYTFKDKPIKITITVTTDPETGTVTVPIEIETEDEKIKEPALEKAKELAEELLASAGGSA [r2_259_JUSTAS] ?
0.133

====

folding stability dG unfold reference
assay: folding stability dG unfold from chymotrypsin proteolysis; higher = more stable
Supply the numeric figure in kcal/mol, leaving out any unit text.

residue_sequence="SAGGKITIEIEEEDGYLVIRIREEKEVYDEETGELKKEEKEITIVLPLEEAKKLAEELNLEIEIVEPSAGGS [r8_337_TrROS_Hall]" quantitative_readout=2.49
residue_sequence="SAGGNNIYVHIQFKPKEQKMERTPDNGKWDMEYKWEIDITIYYPKGMSPEQAERLVNELREIFPGIKSAGGS [r8_306_TrROS]" quantitative_readout=2.54
residue_sequence="SAPGLRTYTIYDPSGVRRTFPPSWDVTILEYDPKTGTVTLKITKHNTDPGAPVSTETEKRKATFLRDVESAG [r14_927_JUSTAS]" quantitative_readout=0.824
residue_sequence="SAGGSAGGSAGGPRMTVVDLDPEKGDHLYLVEIPDTNEVVLVSSSELLRLAEAGPVELKGSAGGSAGGSAGG [r7_452_TrMRF]" quantitative_readout=0.115
residue_sequence="SAGGSAGGPLKVELVKAEILPGNKIIRVYRAELPTETYLAVIELHLNPDGEILSAKIKVYPLPESAGGSAGG [r6_19_TrMRF]" quantitative_readout=3.06

Quick check: folding stability dG unfold of SMTITVKPENIEEVLAQIKALAAKHPKPVTITLEMSPEEVEKLRKALEDAGYKVEVDEKTGKVRIEIKVPSA [r9_600_TrROS_Hall] ?
3.05

Quick check: folding stability dG unfold of SAGSSVTAPFSLPSDLVVDSVTYDPDAKTVTVTVTDPRGGRKAVGTFPVWDPNGNPVLSTADSYTFDNPSAG [r5_434_TrMRF] ?
-0.0129

====

test: folding stability dG unfold (combined trypsin and chymotrypsin); higher = more stable
Kind request: treat 0.6 kcal/mol as inclusive, so folding stability dG unfold at 0.6 kcal/mol or higher is label 1, anything lower is label 0.

residue_sequence="SAGKLVLKPGETVEIGDMTIHFHPDGRVSATFPDGRSAAIRVTVDTDTDVVGFEFVEEHPDVGHTDAPGSAG [r5_33_TrMRF]" label_value="label 1"

Exam item: decide whether the reported folding stability dG unfold for SAGGSAALVLSREEFDGEVLLTLRDPETGEELLARLTYVPEENLVRLETTFPDGSTTTSVLPASALSAGGSA [r15_1055_JUSTAS] is at least 0.6 kcal/mol.
label 1

Exam item: decide whether the reported folding stability dG unfold for SAGGSAKLRVAEADFVPGALLEAIEELEKAPAGAEVEVRPGDPLEPKERPVRFVVNEKGELLEVVGSAGGSA [r15_228_TrMRF] is at least 0.6 kcal/mol.
label 0

Exam item: decide whether the reported folding stability dG unfold for SAGGSAKATLPEGVKIETKTFKLDGRKYMPFVFEAPDDDWVWVNEMRMDPNGKMEMETIWIPPDAVSAGGSA [r15_986_TrROS] is at least 0.6 kcal/mol.
label 0

Exam item: decide whether the reported folding stability dG unfold for SAGGSAGGSWVRDADGKPIPFKIDSVETKEENNPNGNRYYEIEARFPDNGKEFKATIPADDIKSAGGSAGGS [r12_823_TrROS] is at least 0.6 kcal/mol.
label 0

Exam item: decide whether the reported folding stability dG unfold for SAGGSAGGSKSKKYIEIDFSNLTEIKFNPNTNYATAIFKDKGKIYIAKIHFLPNGKAIAEVFDSAGGSAGGS [r12_839_TrMRF] is at least 0.6 kcal/mol.
label 1
